# tested-system: T1, human CD3 epsilon subunit (CD3e), as cell surface CD3 on Jurkat cells and on naive human T cells (human, UniProt P07766 23-207)
# T1 construct: On the cells CD3 epsilon is part of the whole CD3/TCR complex
# T1 sequence (P07766 23-207 limits assumed): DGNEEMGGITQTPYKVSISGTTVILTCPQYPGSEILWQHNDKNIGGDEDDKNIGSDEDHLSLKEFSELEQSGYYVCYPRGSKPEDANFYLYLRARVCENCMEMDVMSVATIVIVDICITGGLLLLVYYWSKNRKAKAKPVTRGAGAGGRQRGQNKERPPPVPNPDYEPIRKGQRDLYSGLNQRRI
# protocol-notes: FACS on Jurkat cells expressing CD3, monovalent IgG
quantity-name: EC50 (nM)

- binder: "2B5v6-0533 (antibody, V domains shown, Tested as a monovalent IgG; also called 2B5-0533) VH: EVQLVESGGGLVQPGGSLRLSCAASGFTFSDYYMTWVRQAPGKGLEWVAFIRNQARGYTSDHNPSVKGRFTISRDNAKNSLYLQMNSLRAEDTAVYYCARDRPSYYVLDYWGQGTTVTVSS VL: DIQMTQSPSSLSASVGDRVTITCTSSQSLFNVRSGKNYLAWYQQKPGKAPKLLIYWASTRESGVPSRFSGSGSGTDFTLTISSLQPEDFATYYCKQSYDLFTFGGGTKVEIK"
  quantity-name: "EC50"
  assay-result: 6.1
- binder: "2B5v6-0522 (antibody, V domains shown, Tested as a monovalent IgG; also called 2B5-0522) VH: EVQLVESGGGLVQPGGSLRLSCAASGFTFSDYYMTWVRQAPGKGLEWVAFIRNQARGYTSDHQPSVKGRFTISRDNAKNSLYLQMNSLRAEDTAVYYCARDRPSYYVLDYWGQGTTVTVSS VL: DIQMTQSPSSLSASVGDRVTITCTSSQSLFNVRSQKNYLAWYQQKPGKAPKLLIYWASDRESGVPSRFSGSGSGTDFTLTISSLQPEDFATYYCKQSYDLFTFGGGTKVEIK"
  quantity-name: "EC50"
  assay-result: 8.6
- binder: "2B5v6-0538 (antibody, V domains shown, Tested as a monovalent IgG; also called 2B5-0538) VH: EVQLVESGGGLVQPGGSLRLSCAASGFTFSDYYMTWVRQAPGKGLEWVAFIRNQARGYTSDHNPSVKGRFTISRDNAKNSLYLQMNSLRAEDTAVYYCARDRPSYYVLDYWGQGTTVTVSS VL: DIQMTQSPSSLSASVGDRVTITCTSSQSLFNVRSQKNYLAWYQQKPGKAPKLLIYWASDRESGVPSRFSGSGSGTDFTLTISSLQPEDFATYYCKQSYDLFTFGGGTKVEIK"
  quantity-name: "EC50"
  assay-result: 9.2
- binder: "2B5v6-0517 (antibody, V domains shown, Tested as a monovalent IgG; also called 2B5-0517) VH: EVQLVESGGGLVQPGGSLRLSCAASGFTFSDYYMTWVRQAPGKGLEWVAFIRNQARGYTSDHQPSVKGRFTISRDNAKNSLYLQMNSLRAEDTAVYYCARDRPSYYVLDYWGQGTTVTVSS VL: DIQMTQSPSSLSASVGDRVTITCTSSQSLFNVRSGKNYLAWYQQKPGKAPKLLIYWASTRESGVPSRFSGSGSGTDFTLTISSLQPEDFATYYCKQSYDLFTFGGGTKVEIK"
  quantity-name: "EC50"
  assay-result: 9.9
